Give measured melting point for each item. Keep answers brief.

Example results:
CCc1ccc(S(=O)O)cc1Cl 58 to 60 °C
CC(C)=CCCOc1c(-c2ccc(S(N)(=O)=O)cc2)cnn(-c2ccc(F)c(F)c2)c1=O 70 to 73 °C

--- query ---
Which value of melting point has been reported for CCOC(=O)c1sc2ccc(O)c(C=Nc3ccc(OC)cc3)c2c1Cl in the records? 162 to 163 °C

###

quantity_name: melting point

For each entry beneath this line, provide reported melting point.
1. Cc1cccc(-c2[nH]c(C(C)C)nc2-c2cccc(-c3ccc(S(=O)(=O)N(C)C)cc3)c2)n1
2. COC(=O)c1nn(Cc2ccccc2)c2c1CCc1cc(OCc3ccccc3)ccc1-2
3. NNc1c(Cl)cc(C(F)(F)F)c(F)c1Cl
4. Cc1cn2ccc(N)c(Br)c2n1
5. OCCCc1cnoc1-c1ccc(Cl)c(Cl)c1
6. COC(=O)C(=CC(=CN(C)C)c1ccc(Cl)cc1[N+](=O)[O-])[N+](=O)[O-]
7. Cc1nn(-c2ccccn2)c(=O)cc1-c1ccc(O)cc1

1: 93 to 96 °C; 2: 168 to 169 °C; 3: 50 to 51 °C; 4: 158 to 160 °C; 5: 66 to 67 °C; 6: 193 to 197 °C; 7: 252 to 254 °C

For each entry beneath this line, provide reported melting point.
1. O=C1NCCNCCNCCNC(=O)c2cccc1n2
2. Nc1ncc(Sc2ncccn2)s1
3. Cc1ccccc1CNC(=O)N1Cc2ccccc2-n2nc(C(C)(C)C)cc21

["224 to 227 °C", "175 to 177 °C", "180 to 181 °C"]

###

Give measured melting point for each item. Keep answers brief.

compound	melting point
CCCn1c(=O)c2c(nc(/C=C/c3ccc(OC(C)=O)c(OC)c3)n2C)n(CCC)c1=O	179 to 181 °C
CNC(=O)Nc1ccc(OCCNCC(O)c2ccc(O)cc2)cc1 (centres undefined)	155 to 160 °C
Cc1ccc(S(=O)(=O)OCC2(F)CCN(C(=O)c3ccc(F)c(Cl)c3)CC2)cc1	92 °C

--- query ---
Which value of melting point has been reported for Cc1ccc(Oc2ccc(C=O)cc2)cn1 in the records? 45 to 46 °C

###

Give measured melting point for each item. Keep answers brief.

Example results:
molecule	quantity_name	value
COc1cc(N2CCN(Cc3ccccc3)CC2)c2nccc(C)c2c1	melting point	154 to 155 °C
CN(C)CCC1CCC2(CC1)Nc1cc(Cl)c(S(N)(=O)=O)cc1S(=O)(=O)N2 (stereo not drawn)	melting point	238 to 239 °C

--- query ---
Which value of melting point has been reported for Cc1ccc(-n2ncc(C(=O)O)n2)cc1 in the records? 209 to 211 °C

###

Residues, ends and D or L forms follow the SMILES beside them. *: point of attachment. OiPr = CC(C)O*
Give measured melting point for each item. Keep answers brief.

Example results:
compound	melting point
O=[N+]([O-])c1cccc(C=CC=Cc2ccccc2)c1	144 °C
CCCCCCCCNC(=O)NCc1ccc(O)c(OC)c1	90 to 92 °C
CC(C)OC(=O)C(CO)NC(=O)C(CC(=O)O)NC(=O)C(C)N (stereo not drawn) (H-Ala-Asp-Ser-OiPr; configuration not given here)	222 to 234 °C

For each entry beneath this line, provide reported melting point.
1. C#CCN(C(=O)c1cnc(Cl)nc1C(F)(F)F)S(=O)(=O)c1cccc(Cl)c1
2. CN(C)c1ccc2c(c1)CC(N1CCN(CCN3CCOC3=O)CC1)c1ccccc1S2 (centres undefined)
3. Cc1c(F)cc(C(=O)O)c(Cl)c1Cl
4. CN1C(=O)N(C)C(=O)C(Cc2ccccc2)(Cc2ccccc2)C1=O
5. COc1ccc2c(c1)Sc1ccc(F)cc1C(N1CCN(CCN3CCOC3=O)CC1)C2 (centres undefined)
6. Cc1cc2c(cc1C)C(=O)c1c(N)cccc1C2=O

["106 to 107 °C", "168 to 170 °C", "179 to 180 °C", "128 to 129 °C", "177 to 179 °C", "222 °C"]
